Test system: Escherichia coli TOP10;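 also: peptides expressed intracellularly from a pBAD plasmid library in pooled LB shake-flask culture, induced with 0.3% L-arabinose, DNA abundance read by NGS, three biological replicates, DESeq2 with apeglm shrinkage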
experimentNotes: shrunken log2 fold change of peptide-encoding DNA abundance (4.5 h post-induction vs induction); higher = less antimicrobial activity (less host growth inhibition)
setupConditions: time post-induction: 4.5 h; library: site-saturation at positions 5, 18, 19, 20
parameter: shrunken log2 fold change

1. RRIRLRPPRLPRPRPRPHAVPRP :: 0.0578
2. RRIRQRPPRLPRPRPRPCYMPRP :: -0.832
3. RRIRVRPPRLPRPRPRPLQIPRP :: -0.0888
4. RRIRMRPPRLPRPRPRPAWLPRP :: 0.818
5. RRIRTRPPRLPRPRPRPMNAPRP :: 0.194
6. RRIRTRPPRLPRPRPRPPHFPRP :: 0.7
7. RRIRWRPPRLPRPRPRPEDTPRP :: -0.0372
8. RRIRVRPPRLPRPRPRPGHRPRP :: -0.0978
9. RRIRWRPPRLPRPRPRPMVEPRP :: 0.35
10. RRIRPRPPRLPRPRPRPAWTPRP :: 0.492
11. RRIRWRPPRLPRPRPRPYGQPRP :: 0.051
12. RRIRCRPPRLPRPRPRPFVWPRP :: 0.0706
13. RRIRYRPPRLPRPRPRPFVWPRP :: 0.119
14. RRIRNRPPRLPRPRPRPEQIPRP :: -0.0196
15. RRIRRRPPRLPRPRPRPSDTPRP :: -0.0536
16. RRIRLRPPRLPRPRPRPACIPRP :: -0.0506
17. RRIRDRPPRLPRPRPRPRNEPRP :: 0.00109
18. RRIRQRPPRLPRPRPRPGESPRP :: 0.0357
19. RRIRVRPPRLPRPRPRPWWWPRP :: 0.0767
20. RRIRVRPPRLPRPRPRPCFYPRP :: -0.511
21. RRIRMRPPRLPRPRPRPSNYPRP :: -0.078
22. RRIRVRPPRLPRPRPRPSECPRP :: 0.0274
23. RRIRARPPRLPRPRPRPNKCPRP :: -0.311
24. RRIRHRPPRLPRPRPRPFMGPRP :: -0.103
25. RRIRARPPRLPRPRPRPLMWPRP :: 0.481
26. RRIRVRPPRLPRPRPRPWHWPRP :: -0.0605
27. RRIRNRPPRLPRPRPRPRKQPRP :: 0.215
28. RRIRIRPPRLPRPRPRPKEFPRP :: -0.361
29. RRIRYRPPRLPRPRPRPTNRPRP :: -0.363
30. RRIRIRPPRLPRPRPRPDCPPRP :: 0.132
31. RRIRPRPPRLPRPRPRPTEEPRP :: 0.551
32. RRIRMRPPRLPRPRPRPNGWPRP :: 0.175
